Taken from ChEMBL document CHEMBL4765434.

# study target: Proto-oncogene tyrosine-protein kinase receptor Ret (Homo sapiens, UniProt P07949, V804M)
# Sequence (P07949 29-1114 V804M limits assumed): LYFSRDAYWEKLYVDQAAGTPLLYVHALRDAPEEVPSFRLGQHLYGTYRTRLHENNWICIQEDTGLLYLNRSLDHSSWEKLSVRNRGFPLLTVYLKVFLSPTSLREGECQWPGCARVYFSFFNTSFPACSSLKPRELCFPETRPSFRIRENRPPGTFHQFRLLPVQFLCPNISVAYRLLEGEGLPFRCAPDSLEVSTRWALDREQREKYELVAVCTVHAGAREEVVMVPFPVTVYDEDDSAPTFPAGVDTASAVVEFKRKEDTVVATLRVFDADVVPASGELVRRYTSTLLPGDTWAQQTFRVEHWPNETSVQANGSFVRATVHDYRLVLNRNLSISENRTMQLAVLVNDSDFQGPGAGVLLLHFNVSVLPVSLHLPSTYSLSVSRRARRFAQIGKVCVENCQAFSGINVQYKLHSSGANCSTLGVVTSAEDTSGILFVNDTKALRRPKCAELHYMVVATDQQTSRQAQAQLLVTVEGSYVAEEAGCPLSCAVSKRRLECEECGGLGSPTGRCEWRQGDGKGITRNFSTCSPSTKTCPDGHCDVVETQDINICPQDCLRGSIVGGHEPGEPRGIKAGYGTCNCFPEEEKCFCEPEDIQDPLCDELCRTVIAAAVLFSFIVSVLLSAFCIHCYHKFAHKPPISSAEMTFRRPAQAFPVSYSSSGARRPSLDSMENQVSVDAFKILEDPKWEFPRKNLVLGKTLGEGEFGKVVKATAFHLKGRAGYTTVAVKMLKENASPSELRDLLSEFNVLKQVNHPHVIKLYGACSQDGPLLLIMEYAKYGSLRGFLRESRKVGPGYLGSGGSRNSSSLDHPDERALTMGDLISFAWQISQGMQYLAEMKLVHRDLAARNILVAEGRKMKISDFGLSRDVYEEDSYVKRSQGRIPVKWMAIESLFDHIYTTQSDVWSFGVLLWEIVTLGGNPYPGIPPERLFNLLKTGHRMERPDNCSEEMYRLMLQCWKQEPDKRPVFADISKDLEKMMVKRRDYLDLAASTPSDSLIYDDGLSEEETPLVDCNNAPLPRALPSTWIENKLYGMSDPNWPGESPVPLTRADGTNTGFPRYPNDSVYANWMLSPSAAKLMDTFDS
# method description: Inhibition of recombinant human N-terminal GST-HIS6 fused RET V804M mutant (658 to 1114 residues) expressed in Sf9 insect cells using 5-FAM-EEPLYWSFPAKKK-CONH2 as substrate preincubated for 60 mins followed by substrate addition by microfluidic assay
IC50 reference
outcome measure: IC50 (nM)

CC(C)(C)c1cc(NC(=O)Cc2ccc(Nc3ncnc4[nH]c(-c5ccc(S(C)(=O)=O)cc5)cc34)cc2)no1: 13.5
Cn1cc(-c2cc3c(Nc4ccc(CC(=O)Nc5cc(C(C)(C)C)on5)cc4)ncnc3[nH]2)cn1: 63.5
Cn1cc(-c2cc3c(Nc4ccc(CC(=O)Nc5cc(C(C)(C)C)nn5C)cc4)ncnc3[nH]2)cn1: 72.8
